Target: Furin (Homo sapiens) (UniProt P09958)
Sequence (P09958 whole entry, looked up): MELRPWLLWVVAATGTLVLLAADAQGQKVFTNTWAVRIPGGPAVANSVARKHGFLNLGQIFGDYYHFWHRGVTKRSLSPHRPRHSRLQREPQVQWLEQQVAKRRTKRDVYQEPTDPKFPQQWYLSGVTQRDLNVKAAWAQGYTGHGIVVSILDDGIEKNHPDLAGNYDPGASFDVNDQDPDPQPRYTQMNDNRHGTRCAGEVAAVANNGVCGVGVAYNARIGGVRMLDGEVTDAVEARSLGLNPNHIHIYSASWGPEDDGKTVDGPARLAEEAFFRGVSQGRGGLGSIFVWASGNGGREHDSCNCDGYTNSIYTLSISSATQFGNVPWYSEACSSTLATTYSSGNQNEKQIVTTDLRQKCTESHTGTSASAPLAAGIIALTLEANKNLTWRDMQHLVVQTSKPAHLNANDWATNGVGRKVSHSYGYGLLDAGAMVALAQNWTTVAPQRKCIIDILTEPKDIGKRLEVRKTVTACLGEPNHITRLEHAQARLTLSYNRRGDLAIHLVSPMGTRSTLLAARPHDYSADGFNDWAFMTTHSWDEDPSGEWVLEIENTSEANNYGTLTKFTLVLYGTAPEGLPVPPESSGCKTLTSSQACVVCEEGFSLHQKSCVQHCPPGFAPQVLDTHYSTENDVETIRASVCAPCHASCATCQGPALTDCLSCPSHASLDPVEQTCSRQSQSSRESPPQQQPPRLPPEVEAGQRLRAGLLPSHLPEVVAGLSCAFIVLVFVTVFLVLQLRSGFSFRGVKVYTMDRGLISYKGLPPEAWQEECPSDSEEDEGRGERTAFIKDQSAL
Assay: Furin counterscreen qHTS for Zika virus inhibitors (AID 1347149); note: nearly all actives have a fitted effect of over 70% in size; note: potency is the fitted concentration of half-maximal effect
Conditions: furin enzymatic counterscreen, fluorogenic substrate; series mostly up to 114 µM
Source text: Avindra Nath, Ph.D., National Institute of Neurological Disorders and Stroke (NINDS), Bethesda, MD Radhakrishnan Padmanabhan, Ph.D., Georgetown University (GU), Washington D.C. Zika Virus causes congenital defects, including microcephaly and is associated with Guillain-Barre syndrome, eningoencephalitis and myelitis in infected adult. […]
Records with an inconclusive call do not appear. Activity calls are given as the source filed them. Calls come from the whole dose curve; as a rule, active = well fitted inhibition curve with a large enough effect; inconclusive = small, poorly fitted or top-dose-only effect; inactive = no such curve, though single readings can be large or run the other way.

molecule	target_or_system	Potency
CC(C)CN1CC(COc2cccc(C(F)(F)F)c2)Oc2ccnc(-c3ccc(OCC(=O)O)cc3)c2C1=O (stereo not drawn)	Furin (Homo sapiens) (UniProt P09958)	inactive
O=C(OCc1cc(=O)n2nc(C3CC3)sc2n1)c1cccc(NC(=O)c2ccccc2Cl)c1	Furin (Homo sapiens) (UniProt P09958)	inactive
CCCCc1nn2c(=O)cc(COC(=O)c3cccc(NC(=O)c4cccc(Cl)c4)c3)nc2s1	Furin (Homo sapiens) (UniProt P09958)	29.6 µM (active)
CCCCOc1ccc(C2C(=O)N(C3CCCCC3)CC(=O)N2C2CCCCC2)cc1 (stereo not drawn)	Furin (Homo sapiens) (UniProt P09958)	inactive
CCCCCCc1cc2cc(-c3cn4c(n3)sc3cc(OC)ccc34)c(=O)oc2cc1O	Furin (Homo sapiens) (UniProt P09958)	inactive
CC[C@H](C)[C@H]1O[C@]2(CC[C@@H]1C)C[C@@H]1C[C@@H](C/C=C(\C)[C@@H](O[C@H]3C[C@H](OC)[C@@H](O[C@H]4C[C@H](OC)[C@@H](O)[C@H](C)O4)[C@H](C)O3)[C@@H](C)/C=C/C=C3\CO[C@@H]4[C@H](O)C(C)=C[C@@H](C(=O)O1)[C@]34O)O2	Furin (Homo sapiens) (UniProt P09958)	inactive
Cc1c(Cl)cccc1NC(=O)CSc1ncccc1C(=O)Oc1ccccc1Cl	Furin (Homo sapiens) (UniProt P09958)	inactive
COc1ccc(S(=O)(=O)c2c(Nc3cccc(Cl)c3)sc(C(=O)c3ccccc3)c2N)cc1	Furin (Homo sapiens) (UniProt P09958)	52.7 µM (active)
COc1ccccc1C(=O)Nc1ccc(C(=O)OCc2cc(=O)n3c4c(sc3n2)CCCC4)cc1	Furin (Homo sapiens) (UniProt P09958)	7.44 µM (active)
O=C(O)CSc1nc2ccc(NC(=O)COc3ccc(Cl)cc3)cc2s1	Furin (Homo sapiens) (UniProt P09958)	inactive
O=C(OCC#CCSc1nnc(-c2cccc3ccccc23)o1)c1ccc(OC(F)(F)F)cc1	Furin (Homo sapiens) (UniProt P09958)	46.9 µM (active)
O=C(CSc1ncccc1C(=O)Oc1ccccc1Cl)Nc1ccccc1Cl	Furin (Homo sapiens) (UniProt P09958)	inactive
CS(=O)(=O)c1ccc(Nc2ccc3c(c2)OCO3)c([N+](=O)[O-])c1	Furin (Homo sapiens) (UniProt P09958)	inactive
O=C(O)c1ccc(-c2cc(C(F)(F)F)ccc2Cl)cc1	Furin (Homo sapiens) (UniProt P09958)	inactive
O=C(O)Cc1cc(I)c(Oc2cc(I)c(O)c(I)c2)c(I)c1	Furin (Homo sapiens) (UniProt P09958)	inactive
Cc1ccc(NC(=O)c2ccc3c(O)c(S(=O)(=O)c4ccc(Cl)cc4)c(=O)[nH]c3c2)cc1	Furin (Homo sapiens) (UniProt P09958)	inactive
NC(N)=Nc1ccc(O[C@H]2C[C@@H](Oc3ccc(N=C(N)N)cc3)[C@H](N=C(N)N)C[C@@H]2N=C(N)N)cc1	Furin (Homo sapiens) (UniProt P09958)	1.26 µM (active)
O=c1c(O)c(Br)ccc2c(Br)c(O)c(O)c(O)c12	Furin (Homo sapiens) (UniProt P09958)	23.5 µM (active)
